# test details: Plasma PK of H3B-6545 capsules in fasted patients, phase 1 dose escalation
# Format: in vivo, human
# run conditions: female, human, plasma, oral, 200 mg, Cycle 1 Day 15; 200 mg QD capsules, fasted patients; Geometric Mean (GeoCV %)
# Description: Blood samples were collected at the planned time points from each patient and centrifuged. […] The concentration data were then analyzed using Phoenix® WinNonlin software to obtain PK parameters. […] Blood samples (approximately 5 mL each) were collected from human patients pre-dose and at various hourly time points post-dose. Plasma concentrations of H3B-6545 were determined using a validated high-performance liquid chromatography/tandem mass spectrometry (LC-MS/MS) method. […]
reported property: half-life
Form entry: enter the amount, then its unit.

### Prompt Please give the documented half-life of CN(C)C(=O)/C=C/CNCCOc1ccc(/C(=C(/CC(F)(F)F)c2ccccc2)c2ccc3[nH]nc(F)c3c2)cn1
### Response 10.1 h
